Listing: IC50 of selected molecules
Target: Bcl-2 protein (histag-Bcl-2, UniProtKB P10415) (Homo sapiens, UniProt P10415)
Sequence (P10415 whole entry): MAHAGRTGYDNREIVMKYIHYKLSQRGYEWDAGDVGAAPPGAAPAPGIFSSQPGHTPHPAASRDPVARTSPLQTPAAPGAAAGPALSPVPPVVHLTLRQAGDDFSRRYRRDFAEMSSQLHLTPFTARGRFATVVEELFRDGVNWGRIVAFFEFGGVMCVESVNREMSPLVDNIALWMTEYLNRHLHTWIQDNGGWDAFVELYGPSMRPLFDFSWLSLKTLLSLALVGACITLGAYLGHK
Experiment: Inhibition of Bcl-2 by the fluorescence polarisation technique
Type: binding
Conditions: fluorescence polarisation, 2 hours incubation; read-out: IC50 (μM) Bcl-2 FP
Procedure: The fluorescence polarisation tests were carried out on microplates (384 wells). […] After incubation for 2 hours, the fluorescence polarisation is measured.
Where a name gives a salt, the structure may show the parent alone.
The answer consists of two parts: a number and, after it, its unit.

Solved entries:
{"molecule": "Cc1c2cc(n1C)-c1cc(Cl)ccc1C(=O)N1CCc3c(cccc3OCCCc3c(cnn3C)N(c3ccc(O)cc3)C2=O)C1", "IC50": "0.0052 µM"}
{"molecule": "Cc1c2cc(n1C)-c1cc(Cl)ccc1C(=O)N1CCc3c(cccc3OCCOCCOc3ncc(cn3)N(c3ccc(O)cc3)C2=O)C1", "IC50": "0.00385 µM"}
{"molecule": "Cc1c2cc(n1C)-c1cc(Cl)ccc1C(=O)N1CCc3c(cccc3OCCCCOc3cccc(c3)N(c3ccc(O)cc3)C2=O)C1", "IC50": "0.0655 µM"}
{"molecule": "Cc1c2cc(n1C)-c1cc(Cl)ccc1C(=O)N1Cc3ccccc3C(CCOc3c(cnn3C)N(c3ccc(O)cc3)C2=O)C1 (stereo not shown)", "IC50": "0.0153 µM"}
{"molecule": "Cc1c2cc(n1C)-c1cc(Cl)ccc1CN1CCc3c(cccc3OCCc3c(cnn3C)N(c3ccc(O)cc3)C2=O)C1 [Example 10, hydrochloride]", "IC50": "0.299 µM"}
{"molecule": "Cc1c2cc(n1C)-c1cc(Cl)ccc1C(=O)N1CCc3c(cccc3OCCCCn3c(C#N)cc(c3C)N(c3ccc(O)cc3)C2=O)C1", "IC50": "0.003 µM"}
{"molecule": "Cc1c2cc(n1C)-c1cc(Cl)ccc1C(=O)N1CCc3c(cccc3OCCC[n+]3cccc(c3)N(c3ccc(O)cc3)C2=O)C1", "IC50": "0.0314 µM"}
{"molecule": "Cc1c2cc(n1C)-c1cc(Cl)ccc1C(=O)N1Cc3cccc(c3CC1C)OCCCc1c(cc(C#N)n1C)N(c1ccc(O)cc1)C2=O (single isomer, unassigned) [Example 25]", "IC50": "0.268 µM"}

Problem: Endpoint output: IC50 of Cc1c2cc(n1C)-c1cc(Cl)ccc1C(=O)N1CCc3c(cccc3OCCCCn3cc(cn3)N(c3ccc(O)cc3)C2=O)C1 . Value?
Solution: 0.0037 µM

Problem: Returns the measured IC50 for the input molecule. Input: Cc1c2cc(n1C)-c1cc(Cl)ccc1C(=O)N1CCc3c(cccc3OCCCn3c(C#N)cc(c3C)N(c3ccc(O)cc3)C2=O)C1
Solution: 0.00615 µM

Problem: Tell me the measured IC50 of Cc1c2cc(n1C)-c1cc(Cl)ccc1C(=O)N1CCc3c(cccc3OCCc3c(cnn3C3CCOC3)N(c3ccc(O)cc3)C2=O)C1 (stereo not shown) , please.
Solution: 0.0143 µM

Problem: Quick one: IC50 for Cc1c(N2C(=O)c3cc(n(C)c3C)-c3ccccc3C(=O)N3CCC(CCOc4cc(O)ccc42)CC3)cc(C#N)n1C ?
Solution: 0.0288 µM

Problem: Field request: IC50 | item: Cc1c2cc(n1C)-c1cc(Cl)ccc1C(=O)N1CCc3c(cccc3OCCCc3c(cc(C#N)n3C)N(c3ccc(O)cc3)C2=O)C1
Solution: 0.00365 µM

Problem: May I ask what IC50 has been recorded for Cc1c2cc(n1C)-c1cc(Cl)ccc1C(=O)N1Cc3cccc(c3C1)OCCc1c(cnn1C)N(c1ccc(O)cc1)C2=O ?
Solution: 0.0149 µM

Problem: Give the measured IC50 of Cc1c2cc(n1C)-c1cc(Cl)ccc1C(=O)N1CCc3c(cccc3OCCOc3cc(C#N)cc(c3)N(c3ccc(O)cc3)C2=O)C1 .
Solution: 0.0023 µM

Problem: Any idea what IC50 was measured for Cc1c2cc(n1C)-c1cc(Cl)ccc1C(=O)N1CCc3c(cccc3OCCCc3cc(C#N)cc(c3)N(c3ccc(O)cc3)C2=O)C1 ?
Solution: 0.0023 µM
